meta.source: ChEMBL document CHEMBL3612021

Provide the reported inhibition of each item.
target: Adenosine receptor A1 (Homo sapiens) (UniProt P30542); assay: Displacement of [3H]DPCPX from human adenosine A1 receptor expressed in CHO cell membranes at 1 uM by competition association assay

Given the entry N#Cc1c(N)nc(SCc2csc(-c3ccc(Cl)cc3)n2)c(C#N)c1-c1ccc2c(c1)OCO2 , what inhibition was observed with Adenosine receptor A1 (Homo sapiens) (UniProt P30542)?
> 80%

For the record N#Cc1c(N)nc(SCc2csc(-c3cccc(F)c3)n2)nc1-c1ccc2c(c1)OCO2 , what value of inhibition is listed for Adenosine receptor A1 (Homo sapiens) (UniProt P30542)?
> 80%

Lab request: please report inhibition under test system Adenosine receptor A1 (Homo sapiens) (UniProt P30542) for N#Cc1c(N)nc(SCc2ccccc2[N+](=O)[O-])nc1-c1ccccc1
> 80%

Recorded inhibition for N#Cc1c(NCCc2ccccc2)nc(SCc2csc(-c3ccc(Cl)cc3)n2)nc1-c1ccc2c(c1)OCO2 with Adenosine receptor A1 (Homo sapiens) (UniProt P30542), please?
< 80%

Give inhibition (Adenosine receptor A1 (Homo sapiens) (UniProt P30542)) of the following compound: N#Cc1c(N)nc(SCc2nc(-c3ccc(Cl)cc3)sc2Cl)c(C#N)c1-c1ccc2c(c1)OCO2
> 80%

# get_value(readout= inhibition, system= Adenosine receptor A1 (Homo sapiens) (UniProt P30542)) for N#Cc1c(-c2ccc3c(c2)OCO3)cc(SCc2csc(-c3ccc(Cl)cc3)n2)nc1NC1CC1
> 80%

Enter reported inhibition observed with Adenosine receptor A1 (Homo sapiens) (UniProt P30542) for Cc1ccc(-c2nc(SCc3csc(-c4ccc(Cl)cc4)n3)nc(N)c2C#N)cc1
< 80%

So what inhibition did COc1ccc(-c2nc(CSc3nc(N)c(C#N)c(-c4ccc5c(c4)OCO5)n3)cs2)cc1 get with Adenosine receptor A1 (Homo sapiens) (UniProt P30542)?
> 80%

Item Cc1ccc(-c2nc(CSc3nc(N)c(C#N)c(-c4ccc(O)cc4)c3C#N)cs2)cc1 with Adenosine receptor A1 (Homo sapiens) (UniProt P30542) - inhibition?
> 80%

* * *

target: Adenosine receptor A2a (Homo sapiens); test: Displacement of [3H]ZM241385 from human adenosine A2A receptor expressed in HEK293 cell membranes at 1 uM by competition association assay
Metric name: inhibition (%)
Quick note: give the figure in %, leave out the unit.

Given COc1ccc(-c2c(C#N)c(N)nc(SCc3csc(-c4ccc(Cl)cc4)n3)c2C#N)cc1 , state its recorded inhibition.
5.8

Look up inhibition: COc1ccc(-c2c(C#N)c(N)nc(SCc3csc(N4CCOCC4)n3)c2C#N)cc1
0

What inhibition value was documented for this compound, N#Cc1c(N)nc(SCc2csc(-c3ccc(Cl)cc3)n2)c(C#N)c1-c1ccc(OCCO)cc1 ?
0

What value of inhibition has been reported for the following compound? COc1ccc(-c2c(C#N)c(N)nc(SCc3cscn3)c2C#N)cc1
0

Need inhibition, item COc1ccc(-c2c(C#N)c(N)nc(SCc3csc(-c4ccccc4)n3)c2C#N)cc1
0

Quick one: inhibition of COc1ccc(-c2c(C#N)c(N)nc(SCc3csc(-c4ccccn4)n3)c2C#N)cc1 ?
0

* * *

Target: Adenosine receptor A1 (Homo sapiens)
Sequence (whole entry): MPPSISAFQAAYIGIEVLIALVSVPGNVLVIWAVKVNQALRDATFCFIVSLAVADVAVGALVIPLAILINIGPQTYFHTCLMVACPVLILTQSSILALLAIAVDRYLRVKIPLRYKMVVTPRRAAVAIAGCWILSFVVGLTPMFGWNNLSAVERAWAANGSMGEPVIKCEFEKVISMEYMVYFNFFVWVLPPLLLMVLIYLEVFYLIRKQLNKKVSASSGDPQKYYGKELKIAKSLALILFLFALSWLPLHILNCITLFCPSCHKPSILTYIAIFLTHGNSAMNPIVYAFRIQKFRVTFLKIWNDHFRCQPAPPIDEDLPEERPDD
Experiment: Displacement of [3H]DPCPX from human adenosine A1 receptor expressed in CHO cell membranes at 1 uM by competition association assay
Please go through the items and note down their inhibition.

For the compound N#Cc1c(N)nc(SCc2csc(-c3ccc(Cl)cc3)n2)c(C#N)c1-c1ccc(OCCO)cc1 , what inhibition is on record?
> 80%

# input compound: N#Cc1c(N)nc(SCc2csc(-c3ccc(Cl)cc3)n2)nc1-c1ccc(OCCO)cc1 ; wanted: its inhibition
> 80%

Name the recorded inhibition for N#Cc1c(NCc2ccccc2)nc(SCc2csc(-c3ccc(Cl)cc3)n2)nc1-c1ccc2c(c1)OCO2 .
< 80%

State the recorded inhibition for this entry: N#Cc1c(N)nc(SCc2coc(-c3ccc(F)cc3)n2)c(C#N)c1-c1ccc(O)cc1
> 80%

Would you mind telling me what inhibition value was observed for N#Cc1c(N)nc(SCc2csc(-c3ccccc3Cl)n2)nc1-c1ccc2c(c1)OCO2 ?
> 80%

Fill blank: measured inhibition of the compound COc1ccc(-c2c(C#N)c(N)nc(SCc3coc(-c4ccc(F)cc4)n3)c2C#N)cc1 is ____.
> 80%

I would be grateful if you could share the reported inhibition for N#Cc1c(N)nc(SCc2csc(-c3ccc(F)cc3)n2)c(C#N)c1-c1ccc(O)cc1 .
> 80%

Reported inhibition for COc1ccc(-c2c(C#N)c(N)nc(SCc3csc(-c4ccc(Cl)cn4)n3)c2C#N)cc1 : what is it?
> 80%

What value of inhibition has been recorded for this entry: CC(=O)Nc1ccc(-c2nc(SCc3cccc(CCC(=O)N(C)CCN(C)C)n3)nc(N)c2C#N)cc1
< 80%

* * *

Molecular target: Adenosine receptor A1 (Homo sapiens)
Sequence (whole entry): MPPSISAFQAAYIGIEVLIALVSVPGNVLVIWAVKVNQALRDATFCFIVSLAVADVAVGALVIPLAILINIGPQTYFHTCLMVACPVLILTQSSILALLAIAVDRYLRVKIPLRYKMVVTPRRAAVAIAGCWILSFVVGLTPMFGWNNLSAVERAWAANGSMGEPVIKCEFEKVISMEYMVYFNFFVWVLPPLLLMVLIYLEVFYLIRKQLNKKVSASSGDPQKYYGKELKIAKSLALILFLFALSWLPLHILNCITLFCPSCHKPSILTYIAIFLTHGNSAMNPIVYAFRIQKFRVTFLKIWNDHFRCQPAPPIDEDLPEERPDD
Experiment: Displacement of [3H]DPCPX from human adenosine A1 receptor expressed in CHO cell membranes at 1 uM by competition association assay
Metric name: inhibition

Entry under review: COc1ccc(-c2c(C#N)c(N)nc(SCc3csc(-c4cccc(Cl)c4)n3)c2C#N)cc1 . Reported inhibition?
> 80%

Given the entry COc1ccc(-c2c(C#N)c(N)nc(SCc3csc(N4CCOCC4)n3)c2C#N)cc1 , report its measured inhibition.
> 80%

Could you tell me which inhibition is on file for CC(=O)Nc1ccc(-c2nc(SCc3cccc(CCC(=O)N4CCN(CCN5CCCC5)CC4)n3)nc(N)c2C#N)cc1 ?
< 80%

Given the entry N#Cc1c(N)nc(SCc2coc(-c3ccc(F)cc3)n2)nc1-c1ccc2c(c1)OCO2 , report its measured inhibition.
> 80%

Find the recorded inhibition belonging to Cc1ccc(-c2nc(CSc3nc(N)c(C#N)c(-c4ccc5c(c4)OCO5)n3)cs2)cc1 and report it.
> 80%

Which inhibition is reported for this molecule? N#Cc1c(N)nc(SCc2csc(N3CCOCC3)n2)nc1-c1ccc2c(c1)OCO2
> 80%

# get_value(readout='inhibition', item= COc1ccc(-c2c(C#N)c(N)nc(SCc3csc(-c4ccc(Br)cn4)n3)c2C#N)cc1 )
> 80%

State the recorded inhibition for this entry: N#Cc1c(N)nc(SCc2csc(-c3ccccc3F)n2)c(C#N)c1-c1ccc(O)cc1
> 80%

Tell me the measured inhibition of CCNc1nc(SCc2csc(-c3ccc(Cl)cc3)n2)cc(-c2ccc3c(c2)OCO3)c1C#N , please.
> 80%

Which inhibition is reported for this molecule? N#Cc1c(N)nc(SCc2cscn2)nc1-c1ccc2c(c1)OCO2
> 80%

# lookup: inhibition of C#CCNc1nc(SCc2csc(-c3ccc(Cl)cc3)n2)cc(-c2ccc3c(c2)OCO3)c1C#N
> 80%

So what does the record say about inhibition for N#Cc1c(N)nc(SCc2ccccc2[N+](=O)[O-])nc1-c1ccc2c(c1)OCO2 ?
> 80%

Looking for the measured inhibition of COc1ccc(-c2c(C#N)c(N)nc(SCc3csc(-c4ccccc4Cl)n3)c2C#N)cc1 , can you help?
> 80%

Which inhibition is reported for this molecule? N#Cc1c(N)nc(SCc2coc(-c3cccc(F)c3)n2)nc1-c1ccc2c(c1)OCO2
> 80%

If you can, please state the reported inhibition value of N#Cc1c(N)nc(SCc2csc(-c3ccc(Cl)c(Cl)c3)n2)nc1-c1ccc2c(c1)OCO2 .
> 80%

Would you mind telling me what inhibition value was observed for COc1ccc(-c2c(C#N)c(N)nc(SCc3csc(-c4ccccn4)n3)c2C#N)cc1 ?
> 80%

Name the recorded inhibition for CC(C)Nc1nc(SCc2csc(-c3ccc(Cl)cc3)n2)nc(-c2ccc3c(c2)OCO3)c1C#N .
< 80%

Give the measured inhibition of N#Cc1c(NC2CCCC2)nc(SCc2csc(-c3ccc(Cl)cc3)n2)nc1-c1ccc2c(c1)OCO2 .
< 80%

inhibition lookup needed for COc1ccc(-c2c(C#N)c(N)nc(SCc3csc(-c4ccc(I)cc4)n3)c2C#N)cc1 , thanks.
> 80%
